- system_tested: leukotriene B4 specific receptor on the membrane of human neutrophils (Homo sapiens, UniProt Q15722)
- Construct: incubating neutrophils (1×10^7 cells) with 0.1-0.2 nM ^3 H-LTB4; endogenous in cells; host or cells: human peripheral blood neutrophils (buffy coats of two blood donors)
- Sequence (Q15722 whole entry): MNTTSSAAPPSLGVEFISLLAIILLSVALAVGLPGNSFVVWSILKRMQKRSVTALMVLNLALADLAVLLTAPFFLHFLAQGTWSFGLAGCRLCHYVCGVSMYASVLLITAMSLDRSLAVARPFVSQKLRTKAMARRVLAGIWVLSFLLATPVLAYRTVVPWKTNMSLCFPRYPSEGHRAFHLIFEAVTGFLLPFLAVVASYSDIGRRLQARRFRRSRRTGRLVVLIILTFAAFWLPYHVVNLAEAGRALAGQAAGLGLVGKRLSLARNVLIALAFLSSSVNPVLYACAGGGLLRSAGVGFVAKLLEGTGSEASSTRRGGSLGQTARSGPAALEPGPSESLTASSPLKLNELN
- protocol_notes: Inhibition of Binding of ^3 H-LTB4 to Peripheral Human Neutrophils
- measurement_conditions: drug concentration 10^-6 M; 4° C., 10 minutes
- Experimental: The effectiveness of compounds to inhibit the binding of leukotriene B4 to a specific receptor on the membrane of human neutrophils was measured by using an adaptation of a radio-ligand binding assay developed by Goldman and Goetzl, J. Immunol., 129, 1600 (1982). Other investigators have developed similar assays (see, e.g., Kreisle, et al., J. Exp. Med., 157, 628 (1983) and Lin, et al., Prostaglandins, 28, 837 (1984)). […]
Decide using inhibition at 1 µM: a value greater than or equal to 60% is y, a smaller one is n.

smiles_string	cat
C=CCc1cc(C(C)=O)c(O)cc1OCCCCCC#N	n
C=CCc1cc(C(C)=O)c(O)cc1OCCCCCC	n
CCOC(=O)Cn1nnnc1CCCCOc1cc(O)c(C(C)=O)cc1CC	n
C=CCc1cc(C(C)=O)c(O)cc1OCCCCCCS(C)(=O)=O	y
CCc1cc(C(C)=O)c(O)cc1OCc1cccc(C(=O)OC)c1	n

Determine whether measured inhibition at 1 µM meets or exceeds 60% for `CCc1cc(C(C)=O)c(O)cc1OCCCCc1nnnn1C`
n

Hello, I need to know if `C=CCc1cc(C(C)=O)c(O)cc1OCCCCCC(C)=O` has measured inhibition at 1 µM not below 60%. Thanks!
n

Determine whether measured inhibition at 1 µM meets or exceeds 60% for `CCc1cc(C(C)=O)c(O)cc1OCCCCCCC#N`
y

* * *

- system_tested: leukotriene B4 specific receptor on the membrane of human neutrophils (Homo sapiens, UniProt Q15722)
- Construct: incubating neutrophils (1×10^7 cells) with 0.1-0.2 nM ^3 H-LTB4; endogenous in cells; host or cells: human peripheral blood neutrophils (buffy coats of two blood donors)
- protocol_notes: Inhibition of Binding of ^3 H-LTB4 to Peripheral Human Neutrophils
- measurement_conditions: drug concentration 10^-5 M; 4° C., 10 minutes; read-out: LTB4 Binding Inhibition
If the reported inhibition at 10 µM equals or exceeds 70%, assign label 1. If not, assign label 0.

Completed entries (count: 3):
compound	cat
C=CCc1cc(C(C)=O)c(O)cc1OCC#N [Example 25]	label 0
CCc1cc(C(=O)c2ccccc2C(=O)O)c(O)cc1OCCCCC#N [Example 89]	label 0
C=CCc1cc(C(C)=O)c(O)cc1OCc1ccccc1C#N [Example 49]	label 0

Quick check: does CCc1cc(C(C)=O)c(O)cc1OCCCCCCC(=O)N(C)C [Example 98] have inhibition at 10 µM greater than or equal to 70%?
label 1

Quick check: does CCc1cc(C(C)=O)c(O)cc1OCc1cccc(C#N)c1 [Example 55] have inhibition at 10 µM greater than or equal to 70%?
label 0

Would you say C#CCCCCOc1cc(O)c(C(C)=O)cc1CC=C [Example 57] shows inhibition at 10 µM at minimum 70%?
label 1

// inclusive: inhibition at 10 µM at least 70%? input: C=CCc1cc(C(C)=O)c(O)cc1OCc1ccc(C#N)cc1 [Example 48]
label 0

Determine whether measured inhibition at 10 µM meets or exceeds 70% for C=CCc1cc(C(C)=O)c(O)cc1OCc1ccccc1 [Example 47]
label 0

* * *

- system_tested: leukotriene B4 specific receptor on the membrane of human neutrophils (Homo sapiens, UniProt Q15722)
- Construct: incubating neutrophils (1×10^7 cells) with 0.1-0.2 nM ^3 H-LTB4; endogenous in cells; host or cells: human peripheral blood neutrophils (buffy coats of two blood donors)
- protocol_notes: Inhibition of Binding of ^3 H-LTB4 to Peripheral Human Neutrophils
- measurement_conditions: drug concentration 10^-6 M; 4° C., 10 minutes
Structures can show the parent of a compound that is named as a salt.
Please enter YES where inhibition at 1 µM is greater than or equal to 30%, and NO where it is lower.

Solved cases below.
molecule	cat
CCc1cc(C(C)=O)c(O)cc1OCCCCCC(C)(C)C(=O)O	YES
CCc1cc(C(C)=O)c(O)cc1OCc1cccc(Cl)c1	NO
CCc1cc(C(C)=O)c(O)cc1OCCCCCn1cncn1	NO
C=CCc1cc(C(C)=O)c(O)cc1OCCCCN1CCOCC1 [Example 75, hydrochloride]	NO
C=CCc1cc(C(=O)CC)c(O)cc1OCCCCC#N	YES
CCc1cc(C(C)=O)c(O)cc1OCc1ccc(C(=O)O)c(O)c1	NO

hey, is inhibition at 1 µM for this one >= 30%? CC(=O)c1cc(CC(C)O)c(OCCCCC#N)cc1O (stereo not shown)
NO

API: above_or_equal(metric=inhibition at 1 µM, cutoff=30%) for item `C=CCc1cc(C(C)=O)c(O)cc1OCc1ccc(C#N)cc1`
NO

Does inhibition at 1 µM meet or surpass 30% for `C=CCc1cc(C(C)=O)c(O)cc1OCCCCCCC` ?
NO

Reported inhibition at 1 µM reaches at least 30% for `CC(=O)c1cc(C(C)=O)c(OCCCCC#N)cc1O` ?
NO

Is inhibition at 1 µM for `CCc1cc(C(C)=O)c(O)cc1OCCCCC#N` at or above 30%?
YES

* * *

- Tested on: inflammation created by injecting carrageenin into the hind paws of rats
- protocol_notes: Carrageenin Assay
- Type: in vivo
- measurement_conditions: Rattus norvegicus, ip, 50 mg/kg i.p., prior to carrageenin injection, read-out: Percent Inhibition (Antiinflammatory Activity in the Carrageenin Assay)
Rule: MET for inhibition in vivo at 50 mg/kg not less than 50%, NOT MET for anything less.

Reference set (5 entries):
compound	system_tested	cat
C=CCc1cc(C(C)=O)c(O)cc1OCc1ccc(C#N)cc1	inflammation created by injecting carrageenin into the hind paws of rats	NOT MET
C=CCc1cc(C(C)=O)c(O)cc1OCc1ccccc1C#N	inflammation created by injecting carrageenin into the hind paws of rats	NOT MET
CCc1cc(C(C)=O)c(O)cc1OCCCCc1nnnn1C	inflammation created by injecting carrageenin into the hind paws of rats	MET
CCc1cc(C(C)=O)c(O)cc1OCCCC(C)(C)c1nnn[nH]1	inflammation created by injecting carrageenin into the hind paws of rats	NOT MET
CCc1cc(C(C)=O)c(O)cc1OCCCCCC[S+](C)[O-] (stereo not drawn)	inflammation created by injecting carrageenin into the hind paws of rats	NOT MET

Decide: inhibition in vivo at 50 mg/kg of `C=CCc1cc(C(C)=O)c(O)cc1OCc1cccc(C)c1` >= 50%?
MET

Threshold query (inhibition in vivo at 50 mg/kg >= 50%) on `CCc1cc(C(C)=O)c(O)cc1OCCCCCCc1nnn[nH]1`
NOT MET

Does the compound `CCc1cc(C(C)=O)c(O)cc1OCCCCCC(C)(C)c1nn[nH]n1` have recorded inhibition in vivo at 50 mg/kg that is 50% or more?
MET

* * *

Consider the following molecules; for each one, report its inhibition at 1 µg/mL.
- Test system: IL-1 induced T-cell Proliferation
- protocol_notes: Anti IL-1 Activity (Thymocyte Assay): suppression of IL-1 induced T-cell proliferation
- Type: cell-based, C3H/HeJ male mice
- measurement_conditions: 1 mcg/ml, mouse thymocytes, 48 hours, read-out: Percent T-cell suppression
Numbers only, in %.

Count: 6. Required value per item: inhibition at 1 µg/mL.
1. CCc1cc(C(=O)c2ccccc2)c(O)cc1OCCCCC#N [Example 130]
2. CCc1cc(C(C)=O)c(O)cc1OCCCCc1nnnn1C [Example 122]
3. CC(=O)c1cc(CC(C)O)c(OCCCCC#N)cc1O (stereo not drawn) [Example 125]
4. CCc1cc(C(C)=O)c(O)cc1OCCCCCCC(=O)N(C)C [Example 98]
5. CCCc1cc(C(C)=O)c(O)cc1OCCCCC(=O)O [Example 132]
6. C=CCc1cc(C(=O)CCCCCCCCC)c(O)cc1OCCCCC#N [Example 107]

1. 41
2. 37
3. 30
4. 14
5. 15
6. 47

* * *

- system_tested: leukotriene B4 specific receptor on the membrane of human neutrophils (Homo sapiens)
- Construct: incubating neutrophils (1×10^7 cells) with 0.1-0.2 nM ^3 H-LTB4; endogenous in cells; host or cells: human peripheral blood neutrophils (buffy coats of two blood donors)
- protocol_notes: Inhibition of Binding of ^3 H-LTB4 to Peripheral Human Neutrophils
- measurement_conditions: drug concentration 10^-5 M; 4° C., 10 minutes; read-out: LTB4 Binding Inhibition
- Method: The effectiveness of compounds to inhibit the binding of leukotriene B4 to a specific receptor on the membrane of human neutrophils was measured by using an adaptation of a radio-ligand binding assay developed by Goldman and Goetzl, J. Immunol., 129, 1600 (1982). Other investigators have developed similar assays (see, e.g., Kreisle, et al., J. Exp. Med., 157, 628 (1983) and Lin, et al., Prostaglandins, 28, 837 (1984)). […]
Please go through the items and note down their inhibition at 10 µM.
One number for each entry, in %.

Observe how each entry below is paired with its result.
molecule	measurement_kind	value_observed
CCCc1cc(C(C)=O)c(O)cc1OCCCCNC(C)=O [Example 77]	inhibition at 10 µM	71
CCc1cc(C(C)=O)c(O)cc1OCCCCc1nn[nH]n1 [Example 110]	inhibition at 10 µM	49

Here are 7 molecules. What values of inhibition at 10 µM were reported for them?
1. C=CCc1cc(C(C)=O)c(O)cc1OCCCCCC(N)=O [Example 96]
2. C=CCc1cc(C(C)=O)c(O)cc1OCc1cccc(C#N)c1 [Example 50]
3. CCc1cc(C(C)=O)c(O)cc1OCCCCCCC#N [Example 20]
4. CCc1cc(C(C)=O)c(OC)cc1OCc1cccc(C#N)c1 [Example 114]
5. C=CCc1cc(C(C)=O)c(O)cc1OCc1cccc(CC#N)c1 [Example 60]
6. CCc1cc(C(C)=O)c(O)cc1OCCCCc1nnn(CC(=O)O)n1 [Example 143]
7. CCc1cc(C(C)=O)c(O)cc1OCCCCCCS(C)(=O)=O [Example 83]

1: 87; 2: 67; 3: 102; 4: 52; 5: 12; 6: 69; 7: 98

I would be grateful if you could provide inhibition at 10 µM for each of the following entries.
1. CCc1cc(C(C)=O)c(O)cc1OCCCC(C)(C)C(N)=O [Example 135]
2. CCc1cc(C(C)=O)c(O)cc1OCc1cccc(C(=O)O)c1 [Example 84]
3. C=CCc1cc(C(C)=O)c(O)cc1OCc1cccc(C)c1 [Example 51]
4. CCOC(=O)c1ccc(COc2cc(O)c(C(C)=O)cc2CC)cc1O [Example 147]
5. C=CCc1cc(C(C)=O)c(O)cc1OCCCCc1nnnn1C [Example 119]
6. CCc1cc(C(C)=O)c(O)cc1OCCCCCN [Example 137]
7. CCc1cc(C(C)=O)c(O)cc1OCCCCCCC(=O)O [Example 85]
8. CCc1cc(C(C)=O)c(O)cc1OCCCCc1nnnn1C [Example 122]

1: 95; 2: 81; 3: 24; 4: 2; 5: 57; 6: 43; 7: 86; 8: 66

Record inhibition at 10 µM per entry; entries follow.
1. CCc1cc(C(C)=O)c(O)cc1OCc1cccc(F)c1 [Example 54]
2. C=CCc1cc(C(C)=O)c(O)cc1OCCCCCC#N [Example 21]

[42, 81]

Each molecule below has a recorded value; state its inhibition at 10 µM.
1. CC(=O)c1cc(C)c(OCCCCC#N)cc1O [Example 28]
2. CCc1cc(C(C)=O)c(O)cc1OCCCCCNC(C)=O [Example 138]
3. C=CCc1cc(C(C)=O)c(O)cc1OCCCCCC [Example 39]
4. CCc1cc(C(C)=O)c(O)cc1OCCCC(C)(C)C#N [Example 133]
5. CCc1cc(C(=O)c2cccc(C(=O)O)c2)c(O)cc1OCCCCC#N [Example 92]
6. CCCc1cc(C(C)=O)c(O)cc1OCCCCC#N [Example 118]
7. C=CCc1cc(C(C)=O)c(O)cc1OCCCCCC(C)=O [Example 102]
8. COCc1cc(C(C)=O)c(O)cc1OCCCCCCC#N [Example 129]

1: 77; 2: 98; 3: 50; 4: 89; 5: 40; 6: 83; 7: 97; 8: 47

inhibition at 10 µM reported for this molecule C=CCc1cc(C(C)=O)c(O)cc1OCCCCCC(C)(C)O [Example 103] : 97
